target desc: T1, soluble FGFR3c receptor protein (human, UniProt P22607 141-372)
T1 sequence: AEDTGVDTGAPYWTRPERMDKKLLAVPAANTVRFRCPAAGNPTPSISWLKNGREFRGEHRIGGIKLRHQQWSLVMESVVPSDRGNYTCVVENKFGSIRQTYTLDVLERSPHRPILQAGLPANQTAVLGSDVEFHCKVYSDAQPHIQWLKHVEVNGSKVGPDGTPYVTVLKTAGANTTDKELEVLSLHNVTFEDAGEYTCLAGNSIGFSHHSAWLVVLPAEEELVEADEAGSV
experiment notes: BLI Octet RED96, antibody on anti-hIgG Fc tip
readout: Kd (nM)
Write the number in nM without appending the unit.

Below are worked cases with known answers.
>  <binder>
Vk3 combined with the VH of Ab15 (antibody, V domains shown, captured on anti-human IgG Fc tips) VH: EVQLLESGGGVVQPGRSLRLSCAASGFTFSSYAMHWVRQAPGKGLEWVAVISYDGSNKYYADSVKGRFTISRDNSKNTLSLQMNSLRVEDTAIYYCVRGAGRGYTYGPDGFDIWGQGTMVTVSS VL: DIVMTQTPLSLSVTPGQPASISCTSSRSLLHSDGKTYVYWYLQKSGQPPQLLIYELSNRFSGVPDRFSGSGSRTDFTLKISRVEAEDVGVYYCMQYIEAPLTFGGGTKVEIK

>  <result unit>
nM

>  <Kd>
7.97

$$$$
>  <binder>
Vk12 combined with the VH of Ab15 (antibody, V domains shown, captured on anti-human IgG Fc tips) VH: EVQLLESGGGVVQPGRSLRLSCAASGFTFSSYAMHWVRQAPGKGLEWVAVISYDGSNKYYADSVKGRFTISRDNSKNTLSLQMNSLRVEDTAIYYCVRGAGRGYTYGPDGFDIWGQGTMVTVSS VL: DIVMTQSPLSLPVTPGEPASISCTSSRSLLHSDGKTYVYWYLQKPGQSPQLLIYELSNRFSGVPDRFSGSGSGTDFTLKISRVEAEDVGVYYCMQYIEAPLTFGGGTKVEIK

>  <result unit>
nM

>  <Kd>
6.38

$$$$

Lab note: next binder to report on.
Query block: Suppose we examine the binder Vk1 combined with the VH of Ab15 (antibody, V domains shown, captured on anti-human IgG Fc tips) VH: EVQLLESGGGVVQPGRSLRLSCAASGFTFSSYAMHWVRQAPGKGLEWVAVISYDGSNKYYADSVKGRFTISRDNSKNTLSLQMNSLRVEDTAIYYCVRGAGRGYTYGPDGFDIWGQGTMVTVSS VL: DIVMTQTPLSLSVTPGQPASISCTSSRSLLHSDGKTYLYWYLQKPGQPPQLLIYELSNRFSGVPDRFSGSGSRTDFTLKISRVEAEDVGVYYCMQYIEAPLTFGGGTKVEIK ; what Kd value has been reported?
Result block: 12.3
